- assayProtocol: In vivo pharmacokinetics in mice
- conditionsUsed: mouse, plasma, oral; intragastric 100 mg/kg versus intravenous 2 mg/kg, female CD-1 mice; read-out: Bioavailability F

{"molecule": "Cc1ccc(NC(=O)c2ccnc(C(F)(F)F)c2)cc1-c1cc(OCCO)nc([C@]23COC[C@H]2C3)c1 [Compound 16B]", "unitDescriptor": "%", "bioavailability": 131}

----------
- tgt: cRAF protein (Homo sapiens)
- Sequence (P04049 whole entry): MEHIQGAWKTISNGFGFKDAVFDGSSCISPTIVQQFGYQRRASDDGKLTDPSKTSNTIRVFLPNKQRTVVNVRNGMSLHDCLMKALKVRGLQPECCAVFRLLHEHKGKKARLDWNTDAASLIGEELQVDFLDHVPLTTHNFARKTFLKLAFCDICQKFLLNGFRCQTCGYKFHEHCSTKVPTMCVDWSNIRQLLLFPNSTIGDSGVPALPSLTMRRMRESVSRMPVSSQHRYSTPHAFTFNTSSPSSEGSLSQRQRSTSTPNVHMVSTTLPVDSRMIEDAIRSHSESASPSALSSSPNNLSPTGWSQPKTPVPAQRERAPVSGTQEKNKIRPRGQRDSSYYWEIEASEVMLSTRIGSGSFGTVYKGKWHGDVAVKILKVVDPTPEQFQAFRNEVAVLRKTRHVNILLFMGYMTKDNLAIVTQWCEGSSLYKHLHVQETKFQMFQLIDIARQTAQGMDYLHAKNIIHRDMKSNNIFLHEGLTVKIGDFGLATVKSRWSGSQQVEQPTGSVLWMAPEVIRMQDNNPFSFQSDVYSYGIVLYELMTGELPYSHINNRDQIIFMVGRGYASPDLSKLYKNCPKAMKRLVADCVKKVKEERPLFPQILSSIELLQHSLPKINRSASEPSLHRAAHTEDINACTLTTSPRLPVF
pIC50: −log10 of the molar value.

{"molecule": "Cc1ccc(NC(=O)c2ccnc(C(F)(F)F)c2)cc1-c1cc(C23CCOCC2C3)cc(OCCO)n1 (stereo not drawn) [Compound 8]", "pIC50": 8.96}
{"molecule": "Cc1ccc(NC(=O)c2ccnc(C(C)(F)F)c2)cc1-c1cc(OCCO)nc(C23CCOCC2C3)c1 (stereo not drawn) [Compound 6]", "pIC50": 9.05}
{"molecule": "COC[C@@H](O)COc1cc(-c2cc(NC(=O)c3ccnc(C(F)(F)F)c3)ccc2C)cc(C23CCOCC2C3)n1 (stereo partly drawn) [Compound 10]", "pIC50": 8.60}
{"molecule": "Cc1ccc(NC(=O)c2ccnc(C(F)(F)F)c2)cc1-c1cc(SCCO)nc(C23CCOCC2C3)c1 (stereo not drawn) [Compound 7]", "pIC50": 8.60}
{"molecule": "Cc1ccc(NC(=O)c2ccnc(C(F)(F)F)c2)cc1-c1cc(N(C)CCO)nc(C23CCOCC2C3)c1 (stereo not drawn) [Compound 2]", "pIC50": 8.57}
{"molecule": "Cc1ccc(NC(=O)c2ccnc(C(F)(F)F)c2)cc1-c1cc(OCCO)nc(C23CCOCC2C3)c1 (single isomer, unassigned) [Compound 1B]", "pIC50": 8.70}
